System: Hepatitis C virus
Test: Antiviral activity against Hepatitis C virus genotype 1b I389luc-ubi-neo/NS3-3'/5.1 subgenomic replicon infected in human Huh5-2 cells after 4 days by luciferase assay
Type: functional, cell-based, Hepacivirus hominis
Details: Huh-5-2, 96 h
measured.attribute: EC50

Sample answers from the record:
Challenge: Entry under review: CC(=O)CC[C@H]1C(=O)N[C@@H](C(C)C)C(=O)N[C@@H](Cc2cccc(O)c2)C(=O)N2CCCC(N2)C(=O)O[C@H](/C(C)=C/C=C/C(=O)N2CCCCO2)C/C=C/C=C/[C@H](O)[C@H](C)[C@H]1O (stereo not given in full) . Reported EC50?
Response given: 125 nM

Challenge: What does the data say about its EC50? Entry: CON(C)C(=O)/C=C/C=C(\C)[C@@H]1C/C=C/C=C/[C@H](O)[C@H](C)[C@@H](O)[C@@H](CCC(C)=O)C(=O)N[C@@H](C(C)C)C(=O)N[C@@H](Cc2cccc(O)c2)C(=O)N2CCCC(N2)C(=O)O1 (stereo not given in full)
Response given: 162 nM

Challenge: Looking for the measured EC50 of C=CCNC(=O)/C=C/C=C(\C)[C@@H]1C/C=C/C=C/[C@H](O)[C@H](C)[C@@H](O)[C@@H](CCC(C)=O)C(=O)N[C@@H](C(C)C)C(=O)N[C@@H](Cc2cccc(O)c2)C(=O)N2CCCC(N2)C(=O)O1 (stereo in doubt) , can you help?
Response given: 1600 nM

Quick batch: EC50 for everything below.
1. CCC[C@H](NC(=O)[C@@H]1[C@H]2CCC[C@H]2CN1C(=O)[C@@H](NC(=O)[C@@H](NC(=O)c1cnccn1)C1CCCCC1)C(C)(C)C)C(=O)C(=O)NC1CC1
2. CC(=O)CC[C@H]1C(=O)N[C@@H](C(C)C)C(=O)N[C@@H](Cc2cccc(O)c2)C(=O)N2CCCC(N2)C(=O)O[C@H](/C(C)=C/C=C/C(=O)Nc2ccncc2)C/C=C/C=C/[C@H](O)[C@H](C)[C@H]1O (stereo not given in full)

Response given:
1: 235 nM; 2: 8060 nM

Origin of measurements: ChEMBL document CHEMBL3217729
